# System: rabbit serum obtained by immunizing a rabbit with the SARS-CoV strain Frankfurt 1
# Type: binding
# Design: unit not given here
I would appreciate it if you labelled entries Condition met when Binding of a rabbit serum to looped peptides is 0.4 or higher, otherwise Condition not met.

INSERT INTO measurements (sequence, tested_target, class_label) VALUES
  ('STPKLKEDYQIGGYS', 'rabbit serum obtained by immunizing a rabbit with the SARS-CoV strain Frankfurt 1', 'Condition not met'),
  ('FLQCINACRIIMRCW', 'rabbit serum obtained by immunizing a rabbit with the SARS-CoV strain Frankfurt 1', 'Condition met'),
  ('KSKNPLLYDANYFVC', 'rabbit serum obtained by immunizing a rabbit with the SARS-CoV strain Frankfurt 1', 'Condition met'),
  ('LSLLKVTAFQHQNSK', 'rabbit serum obtained by immunizing a rabbit with the SARS-CoV strain Frankfurt 1', 'Condition not met'),
  ('LYKGFQFICNLLLLF', 'rabbit serum obtained by immunizing a rabbit with the SARS-CoV strain Frankfurt 1', 'Condition not met'),
  ('SGVKDYVVVHGYFTE', 'rabbit serum obtained by immunizing a rabbit with the SARS-CoV strain Frankfurt 1', 'Condition met'),
  ('NYDYCIPYNSVTDTI', 'rabbit serum obtained by immunizing a rabbit with the SARS-CoV strain Frankfurt 1', 'Condition met'),
  ('NYFVCWHTHNYDYCI', 'rabbit serum obtained by immunizing a rabbit with the SARS-CoV strain Frankfurt 1', 'Condition met'),
  ('HGYFTEVYYQLESTQ', 'rabbit serum obtained by immunizing a rabbit with the SARS-CoV strain Frankfurt 1', 'Condition met'),
  ('SLHKLLQTLVLKMLH', 'rabbit serum obtained by immunizing a rabbit with the SARS-CoV strain Frankfurt 1', 'Condition met'),
  ('AYCCNIVNVSLVKPT', 'rabbit serum obtained by immunizing a rabbit with the SARS-CoV strain Frankfurt 1', 'Condition not met'),
  ('DANYFVCWHTHNYDY', 'rabbit serum obtained by immunizing a rabbit with the SARS-CoV strain Frankfurt 1', 'Condition met'),
  ('VLKTMSLYMAISPKF', 'rabbit serum obtained by immunizing a rabbit with the SARS-CoV strain Frankfurt 1', 'Condition met');
